assay type: physicochemical; conditions: 40° C./75% RH, 10-day time point
QUANTITY MEASURED: Change of purity profile / CP

> print(dat)
                                   compound           result
1  COc1ccc2c(ccn2C[C@@H](C)[NH+](C)C)c1.O=C(O)/C=C/C(=O)O [Compound 1 fumarate]  reduction in CP
2  COc1ccc2c(ccn2C[C@@H](C)N(C)C)c1.O=C(O)/C=C\C(=O)O [compound 1 maleate]  reduction in CP

====

assay: Solubility determinations in SIF buffers (FaSSIF, FeSSIF, FaSSGF); assay type: physicochemical; conditions: FaSSGF (ph 1.6), t = 6 h@37° C.
Would you mind telling me the reported Solubility of each entry?

Here's what some known entries look like.
> print(dat)
                                   compound  quantity.measured       result
1  COc1ccc2c(ccn2C[C@@H](C)N(C)C)c1.Cl [Compound 1 · HCl]         Solubility    >30 mg/mL
2  COc1ccc2c(ccn2C[C@@H](C)N(C)C)c1.O=C(O)/C=C/C(=O)O [Compound 1 · Fumarate]         Solubility    >30 mg/mL
3  COc1ccc2c(ccn2C[C@@H](C)N(C)C)c1.O=C(O)c1ccccc1 [Compound 1 · Benzoate]         Solubility  26.33 mg/mL

Note to self: Solubility recorded for COc1ccc2c(ccn2C[C@@H](C)N(C)C)c1.O=C(O)/C=C\C(=O)O [Compound 1 · Maleate] was >30 mg/mL

====

Assay: Dynamic vapor sorption (DVS)
Type: physicochemical
Settings: 70% RH (printed 70° RH in Example 8)
Experimental: There are two main methods to use, one is by time where the equilibration is given by a fixed time, i.e., 1 hour per step and is appropriate for an unknown phase. […] Consequently, amorphous batch 1 was analyzed by the fixed time method and once compound 1 fumarate crystalline polymorphic Form A was generated the analyses was repeated as mass per unit time equilibrated @dm/dt ([…]) and is given below (refer to FIG. 12). […]
QUANTITY MEASURED: DVS weight gain at 70% RH

> print(dat)
                                   compound       result
1  COc1ccc2c(ccn2C[C@@H](C)[NH+](C)C)c1.O=C(O)/C=C/C(=O)O [Compound 1 fumarate]  ca. 1 % w/w
2  COc1ccc2c(ccn2C[C@@H](C)N(C)C)c1.O=C(O)/C=C/C(=O)O  ca. 1 % w/w

====

type: physicochemical; settings: t = 10 d at 75% RH at 40° C.
QUANTITY MEASURED: HPLC peak RRT 1.00 (reference peak)
Answers are plain numbers.

> print(dat)
                                   compound                    quantity.measured  result
1  COc1ccc2c(ccn2C[C@@H](C)[NH+](C)C)c1.O=C(O)/C=C/C(=O)O [Compound 1 fumarate]  HPLC peak RRT 1.00 (reference peak)   97.08
2  COc1ccc2c(ccn2C[C@@H](C)N(C)C)c1.O=C(O)/C=C\C(=O)O [Maleate salt]  HPLC peak RRT 1.00 (reference peak)   98.30
3  COc1ccc2c(ccn2C[C@@H](C)N(C)C)c1.Cl [HCl salt]  HPLC peak RRT 1.00 (reference peak)   99.60

Attention now shifts to the item below.
Note to self: HPLC peak RRT 1.00 (reference peak) recorded for COc1ccc2c(ccn2C[C@@H](C)N(C)C)c1.O=C(O)c1ccccc1 [Benzoate salt] was 99.52

====

test: Solubility determinations in SIF buffers (FaSSIF, FeSSIF, FaSSGF); assay type: physicochemical; conditions: FaSSGF (ph 1.6), t = 3 h@37° C.
Would you mind telling me the reported Solubility of each entry?

Here's what some known entries look like.
> print(dat)
                                   compound       result
1  COc1ccc2c(ccn2C[C@@H](C)N(C)C)c1.O=C(O)/C=C\C(=O)O [Compound 1 · Maleate]    >30 mg/mL
2  COc1ccc2c(ccn2C[C@@H](C)N(C)C)c1.Cl [Compound 1 · HCl]    >30 mg/mL
3  COc1ccc2c(ccn2C[C@@H](C)N(C)C)c1.O=C(O)c1ccccc1 [Compound 1 · Benzoate]  26.85 mg/mL

Attention now shifts to the item below.
Note to self: Solubility recorded for COc1ccc2c(ccn2C[C@@H](C)N(C)C)c1.O=C(O)/C=C/C(=O)O [Compound 1 · Fumarate] was >30 mg/mL

====

Format: physicochemical
Settings: t = 5 d at 75% RH at 40° C.
Description: Equilibrium Humidity Evaluation (40° C./75% RH for 10 Days) 100 mg portions of compound 1 salts (for inputs see table below) were placed in the relevant open vials. The powders were finely divided and distributed evenly over the base of the vial, such that equal material coverage across the panel was observed. […] The samples were sub-sampled at intervals of 5 and 10 days and analysed by ^1H NMR, HPLC, XRPD, DSC, TGA and PLM, for evidence of phase change or chemical degradation (FIG. 269-297).
Would you mind telling me the reported HPLC peak RRT 0.98 of each entry?
Give bare numbers.

> print(dat)
                                   molecule   quantity.measured  result
1  COc1ccc2c(ccn2C[C@@H](C)N(C)C)c1.Cl [HCl salt]  HPLC peak RRT 0.98    0.02

Hi there! I need HPLC peak RRT 0.98 for each item below, if you can.
1. COc1ccc2c(ccn2C[C@@H](C)N(C)C)c1.O=C(O)c1ccccc1 [Benzoate salt]
2. COc1ccc2c(ccn2C[C@@H](C)N(C)C)c1.O=C(O)/C=C\C(=O)O [Maleate salt]
3. COc1ccc2c(ccn2C[C@@H](C)[NH+](C)C)c1.O=C(O)/C=C/C(=O)O [Compound 1 fumarate]

0.04
0.03
0.05

====

Would you mind telling me the reported Solubility of each entry?
assay: Solubility determinations in SIF buffers (FaSSIF, FeSSIF, FaSSGF); format: physicochemical; details: FaSSGF (ph 1.6), t = 1 h@37° C.

> print(dat)
                                   compound  quantity.measured       result
1  COc1ccc2c(ccn2C[C@@H](C)N(C)C)c1.O=C(O)c1ccccc1 [Compound 1 · Benzoate]         Solubility  28.74 mg/mL
2  COc1ccc2c(ccn2C[C@@H](C)N(C)C)c1.O=C(O)/C=C\C(=O)O [Compound 1 · Maleate]         Solubility    >30 mg/mL

Hi there! I need Solubility for each item below, if you can.
1. COc1ccc2c(ccn2C[C@@H](C)N(C)C)c1.Cl [Compound 1 · HCl]
2. COc1ccc2c(ccn2C[C@@H](C)N(C)C)c1.O=C(O)/C=C/C(=O)O [Compound 1 · Fumarate]

1: >30 mg/mL; 2: >30 mg/mL

====

assay type: physicochemical; conditions: t = 10 d at 75% RH at 40° C.
Would you mind telling me the reported HPLC peak RRT 0.98 of each entry?
One number for each entry.

Here's what some known entries look like.
> print(dat)
                                   compound  result
1  COc1ccc2c(ccn2C[C@@H](C)N(C)C)c1.O=C(O)c1ccccc1 [Benzoate salt]    0.04
2  COc1ccc2c(ccn2C[C@@H](C)N(C)C)c1.Cl [HCl salt]    0.01
3  COc1ccc2c(ccn2C[C@@H](C)[NH+](C)C)c1.O=C(O)/C=C/C(=O)O [Compound 1 fumarate]    0.07

Attention now shifts to the item below.
Note to self: HPLC peak RRT 0.98 recorded for COc1ccc2c(ccn2C[C@@H](C)N(C)C)c1.O=C(O)/C=C\C(=O)O [Maleate salt] was 0.05

====

assay type: physicochemical; settings: salt before storage (t = 0)
Would you mind telling me the reported HPLC peak RRT 1.00 (reference peak) of each entry?

Here's what some known entries look like.
> print(dat)
                                   compound  result
1  COc1ccc2c(ccn2C[C@@H](C)N(C)C)c1.Cl [HCl salt]   99.60
2  COc1ccc2c(ccn2C[C@@H](C)N(C)C)c1.O=C(O)/C=C\C(=O)O [Maleate salt]   99.22
3  COc1ccc2c(ccn2C[C@@H](C)N(C)C)c1.O=C(O)c1ccccc1 [Benzoate salt]   99.64

Attention now shifts to the item below.
Note to self: HPLC peak RRT 1.00 (reference peak) recorded for COc1ccc2c(ccn2C[C@@H](C)[NH+](C)C)c1.O=C(O)/C=C/C(=O)O [Compound 1 fumarate] was 98.38

====

Would you mind telling me the reported HPLC peak RRT 1.00 (reference peak) of each entry?
Type: physicochemical
Conditions: t = 5 d at 75% RH at 40° C.
Protocol: Equilibrium Humidity Evaluation (40° C./75% RH for 10 Days) 100 mg portions of compound 1 salts (for inputs see table below) were placed in the relevant open vials. The powders were finely divided and distributed evenly over the base of the vial, such that equal material coverage across the panel was observed. […] The samples were sub-sampled at intervals of 5 and 10 days and analysed by ^1H NMR, HPLC, XRPD, DSC, TGA and PLM, for evidence of phase change or chemical degradation (FIG. 269-297).
Give bare numbers.

Here's what some known entries look like.
> print(dat)
                                   compound                    quantity.measured  result
1  COc1ccc2c(ccn2C[C@@H](C)N(C)C)c1.O=C(O)c1ccccc1 [Benzoate salt]  HPLC peak RRT 1.00 (reference peak)   99.64
2  COc1ccc2c(ccn2C[C@@H](C)N(C)C)c1.O=C(O)/C=C\C(=O)O [Maleate salt]  HPLC peak RRT 1.00 (reference peak)   99.09
3  COc1ccc2c(ccn2C[C@@H](C)[NH+](C)C)c1.O=C(O)/C=C/C(=O)O [Compound 1 fumarate]  HPLC peak RRT 1.00 (reference peak)   96.82

Attention now shifts to the item below.
Note to self: HPLC peak RRT 1.00 (reference peak) recorded for COc1ccc2c(ccn2C[C@@H](C)N(C)C)c1.Cl [HCl salt] was 99.42

FYI, the data here is from patent US12319652B2.
